biological target: F508delCFTR (Homo sapiens, UniProt P13569, DEL508-508); construct: expressed in transfected cells; host or cells: CFBE41o- human lung-derived epithelial cells (CFBE4lo-F508delCFTR-HRP), doxycycline-inducible; test: Cell Surface Expression-Horse Radish Peroxidase (CSE-HRP) Assay; format: cell-based; details: with co-corrector (2 μM of 3-[(2R,4R)-4-({[1-(2,2-difluoro-1,3-benzodioxol-5-yl)cyclopropyl]carbonyl}amino)-7-methoxy-3,4-dihydro-2H-chromen-2-yl]benzoic acid); read-out: EC50 (with co-corrector)
Sequence (P13569 with tags, fused parts or gaps DEL508-508): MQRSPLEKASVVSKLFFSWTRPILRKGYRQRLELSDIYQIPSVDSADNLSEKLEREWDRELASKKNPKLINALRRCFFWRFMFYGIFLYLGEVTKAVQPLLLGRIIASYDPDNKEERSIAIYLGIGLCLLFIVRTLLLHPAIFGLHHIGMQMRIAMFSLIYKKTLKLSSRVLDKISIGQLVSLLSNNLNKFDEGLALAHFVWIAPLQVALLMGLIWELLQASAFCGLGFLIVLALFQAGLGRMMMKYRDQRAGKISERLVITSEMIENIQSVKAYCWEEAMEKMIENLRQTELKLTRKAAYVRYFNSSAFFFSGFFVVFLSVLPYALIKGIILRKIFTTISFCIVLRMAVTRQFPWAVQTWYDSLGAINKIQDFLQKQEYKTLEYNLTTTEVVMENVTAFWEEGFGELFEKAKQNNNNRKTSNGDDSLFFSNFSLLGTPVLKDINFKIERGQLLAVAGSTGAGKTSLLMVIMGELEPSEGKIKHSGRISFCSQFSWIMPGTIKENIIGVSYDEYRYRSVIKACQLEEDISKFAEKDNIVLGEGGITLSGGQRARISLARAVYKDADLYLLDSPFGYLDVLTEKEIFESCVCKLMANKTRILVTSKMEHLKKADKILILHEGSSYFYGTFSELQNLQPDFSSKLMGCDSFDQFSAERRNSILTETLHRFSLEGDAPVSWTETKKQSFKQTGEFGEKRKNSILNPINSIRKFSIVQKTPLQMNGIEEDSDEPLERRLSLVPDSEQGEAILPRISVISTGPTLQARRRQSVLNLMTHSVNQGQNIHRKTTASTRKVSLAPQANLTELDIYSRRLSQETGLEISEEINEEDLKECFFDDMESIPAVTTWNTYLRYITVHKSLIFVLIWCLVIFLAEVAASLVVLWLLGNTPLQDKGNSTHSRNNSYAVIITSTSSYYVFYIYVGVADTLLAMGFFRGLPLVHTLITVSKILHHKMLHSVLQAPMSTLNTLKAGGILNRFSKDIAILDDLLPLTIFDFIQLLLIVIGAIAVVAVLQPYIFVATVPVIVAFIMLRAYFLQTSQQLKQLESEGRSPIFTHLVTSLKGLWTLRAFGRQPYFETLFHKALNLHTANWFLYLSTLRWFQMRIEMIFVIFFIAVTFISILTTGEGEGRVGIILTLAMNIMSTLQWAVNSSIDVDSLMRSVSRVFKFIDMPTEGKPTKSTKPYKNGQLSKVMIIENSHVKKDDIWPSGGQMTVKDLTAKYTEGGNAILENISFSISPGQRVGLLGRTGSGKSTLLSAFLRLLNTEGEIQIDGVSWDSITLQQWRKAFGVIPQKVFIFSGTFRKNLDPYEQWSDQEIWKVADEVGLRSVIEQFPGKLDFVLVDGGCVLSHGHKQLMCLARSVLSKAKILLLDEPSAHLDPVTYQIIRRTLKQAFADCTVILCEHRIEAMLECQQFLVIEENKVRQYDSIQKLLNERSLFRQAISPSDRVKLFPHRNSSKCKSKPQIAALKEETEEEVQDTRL
measurement.kind: EC50

1. COc1nc(C(C)(C)C)ccc1CN[C@H]1[C@H](C(C)(C)C)[C@@H](C(=O)O)N(C(=O)[C@H]2CCCCO2)[C@H]1c1cccnc1N(C)C	1 to 10 µM

Recall the reported EC50 of COc1ccc(C(F)(F)F)cc1CN[C@H]1[C@H](C(C)(C)C)[C@@H](C(=O)O)N(C(=O)C2CCCCC2)[C@H]1c1ncccc1Cl on F508delCFTR (Homo sapiens, UniProt P13569, DEL508-508) and write it down. 1 to 10 µM

Recall the reported EC50 of COc1ncc(CN[C@@H]2[C@@H](C(C)(C)C)[C@H](C(=O)O)N(C(=O)C3CCCCC3)[C@@H]2c2ccccc2)c(OC)n1 (racemic) on F508delCFTR (Homo sapiens, UniProt P13569, DEL508-508) and write it down. 1 to 10 µM

Recall the reported EC50 of Cc1cc(C(F)(F)F)cc(N[C@@H]2[C@@H](C3CC3)[C@H](C(=O)O)N(C(=O)C3CCCCC3)[C@@H]2c2ccccc2)n1 (racemic) on F508delCFTR (Homo sapiens, UniProt P13569, DEL508-508) and write it down. 1 to 10 µM

Recall the reported EC50 of COc1ccc(C(C)(C)C)cc1CN[C@H]1[C@H](C(C)(C)C)[C@@H](C(=O)O)N(C(=O)C2CCc3cc(F)ccc3O2)[C@H]1c1cccnc1N(C)C (some centres unmarked) [III-210] on F508delCFTR (Homo sapiens, UniProt P13569, DEL508-508) and write it down. 1 to 10 µM

Recall the reported EC50 of COc1ncc(C2CCC2)cc1CN[C@H]1[C@H](C(C)(C)OC)[C@@H](C(=O)O)N(C(=O)C2CCCCC2)[C@H]1c1ccccc1 on F508delCFTR (Homo sapiens, UniProt P13569, DEL508-508) and write it down. < 1 µM

Recall the reported EC50 of COc1ncc(C2(C)CC2(F)F)cc1CN[C@H]1[C@H](C(C)(C)C)[C@@H](C(=O)O)N(C(=O)C2CCCCC2)[C@H]1c1ccccc1 (some centres unmarked) on F508delCFTR (Homo sapiens, UniProt P13569, DEL508-508) and write it down. < 1 µM

Recall the reported EC50 of COc1cc(OC)c(CN[C@@H]2[C@@H](C(C)(C)C)[C@H](C(=O)O)N(C(=O)C3CCCCC3)[C@@H]2c2ccccc2)cc1Cl (racemic) on F508delCFTR (Homo sapiens, UniProt P13569, DEL508-508) and write it down. 1 to 10 µM

Recall the reported EC50 of COc1ccc(C(C)(C)C)cc1CN[C@H]1[C@H](C(C)(C)C)[C@@H](C(=O)O)N(C(=O)CC2(O)CCCC2)[C@H]1c1ccccc1 on F508delCFTR (Homo sapiens, UniProt P13569, DEL508-508) and write it down. 1 to 10 µM

Recall the reported EC50 of COc1ncc(C(F)(F)F)cc1CN[C@@H]1[C@@H](C(C)(C)OC)[C@H](C(=O)O)N(C(=O)C2CCCCC2)[C@@H]1c1ccccc1 (racemic) on F508delCFTR (Homo sapiens, UniProt P13569, DEL508-508) and write it down. < 1 µM

Recall the reported EC50 of COc1ncc(C(C)c2ccccc2)cc1CN[C@H]1[C@H](C(C)(C)C)[C@@H](C(=O)O)N(C(=O)C2CCCCC2)[C@H]1c1ccccc1 (some centres unmarked) on F508delCFTR (Homo sapiens, UniProt P13569, DEL508-508) and write it down. < 1 µM

Values from patent US20180099931A1
